Particle size (nm) values for the compounds below.
Test: Particle size and polydispersity index (PDI) of lipid nanoparticles by dynamic light scattering
Type: physicochemical
Details: LNP formulation prepared from the cationic lipid, 25° C.
Procedure: The particle size and polydispersity index (PDI) were determined by dynamic light scattering using Malvern laser particle size analyzer. 10 μL of the liposome solution was weighed, diluted to 1 mL with RNase-free deionized water, and added to the sample pool. Each sample was measured in triplicate. The measurement conditions were: […] scattering angle, and 25° C.

Smiles representation	Readout units	Particle size (nm)
CCCCCCC(CCCCCC)CCOC(=O)CCCCCCN(CCCCCCC(=O)OCCC(CCCCCC)CCCCCC)C[C@H](O)CN(CCO)CCO	nm	200
CCCCCCC(CCCCCC)CCOC(=O)CCCCCN(CCCCCC(=O)OCCC(CCCCCC)CCCCCC)C[C@H](O)CN(C)CCO	nm	228
CCCCCCC(CCCCCC)CCOC(=O)CCCCCN(CCCCCC(=O)OCCC(CCCCCC)CCCCCC)C[C@H](O)CN(CCO)CCO	nm	255
CCCCCCCCCCOC(=O)CCCN(CCCCCC(=O)OCC(CCCCCCCC)CCCCCCCC)C[C@H](O)CN(C)CCO	nm	192

----------
cell survival rate higher than YK-301 values for the compounds below.
System: 293T cells
Test: Cell survival rate determination (CCK-8)
Type: cell-based
Details: difference of survival rates; comparator YK-301
Measured metric: cell survival rate higher than YK-301 (%)

Smiles representation	Readout units	Value observed
CCCCCCCCC(CCCCCCCC)COC(=O)CCCCCN(CCCCCC(=O)OCC(CCCCCCCC)CCCCCCCC)C[C@H](O)CN(C)CCO	%	29.22
CCCCCCCCC(CCCCCCCC)COC(=O)CCCCCN(CCCCCC(=O)OCC(CCCCCCCC)CCCCCCCC)C[C@H](O)CN(CC)CCO	%	24.00
CCCCCCCCC(CCCCCCCC)OC(=O)CCCCCN(CCCCCC(=O)OC(CCCCCCCC)CCCCCCCC)C[C@H](O)CN(CCO)CCO	%	22.60
CCCCCCCCCCCOC(=O)CCCCCN(CCCC(=O)OCCCC(CCCCCCCCCC)CCCCCCCCCC)C[C@H](O)CN(CC)CCO	%	29.14
CCCCCCC(CCCCCC)CCOC(=O)CCCCCCN(CCCCCCC(=O)OCCC(CCCCCC)CCCCCC)C[C@H](O)CN(CCO)CCO	%	22.25

----------
Tested on: female BALB/C mice
Assay: Live imaging in mice: protein expression of Fluc-mRNA delivered by LNP formulations
Assay type: in vivo
Settings: 48 h after intramuscular injection
Would you please tag the item rule met when its average radiation intensity is 800000 or above, and rule not met when it is below?

Compound	Test target	Cat
CCCCCCC(CCCCCC)CCOC(=O)CCCCCCN(CCCCCCC(=O)OCCC(CCCCCC)CCCCCC)C[C@H](O)CN(CCO)CCO	female BALB/C mice	rule met
CCCCCCCCCCCCC(O)CN(C)CCCCCC(=O)OCC(CCCCCC)CCCCCCCC (centres unmarked) [HHMA, reference compound]	female BALB/C mice	rule not met
CCCCCCCCCCOC(=O)CCCN(CCCCCC(=O)OCCC(CCCCCC)CCCCCC)C[C@H](O)CN(C)CCO	female BALB/C mice	rule not met
CCCCCCCCC(CCCCCCCC)OC(=O)CCCCCCCN(CCO)CCCCCCCC(=O)OCCC(CCCCCC)CCCCCC [Compound 21, reference compound]	female BALB/C mice	rule not met
CCCCCCCCCCOC(=O)CCCN(CCO)CCCCCC(=O)OCC(CCCCCCCC)CCCCCCCC [YK-009, reference compound]	female BALB/C mice	rule not met
CCCCCCCCC(CCCCCCCC)COC(=O)CCCCCN(CCCCCC(=O)OCC(CCCCCCCC)CCCCCCCC)C[C@H](O)CN(C)CCO	female BALB/C mice	rule met
CCCCCCCCCCCOC(=O)CCCCCN(CCCC(=O)OCCCC(CCCCCCCCCC)CCCCCCCCCC)C[C@H](O)CN(CC)CCO	female BALB/C mice	rule met
